As a worked illustration, we turn to IC50 data collected for human ATM (Homo sapiens (Human), UniProt Q13315).

In the examples that follow, each entry is paired with its recorded IC50.
>  <compound>
COCCn1c(=O)n(C)c2cnc3ccc(-c4ccc(NC(=O)NCCN(C)C)cc4)cc3c21

>  <IC50>
< 1 nM

$$$$
>  <compound>
COCCn1c(-c2ccco2)nc2cnc3ccc(-c4ccc(OCCCN(C)C)nc4)cc3c21 [Ex. 6, dimesylate]

>  <IC50>
< 1 nM

$$$$
>  <compound>
CN1CCN(C(=O)Nc2ccc(-c3ccc4ncc5c(c4c3)n(C3CCOCC3)c(=O)n5C)cn2)CC1

>  <IC50>
2 nM

$$$$
>  <compound>
COCCn1c(=O)n(C)c2cnc3ccc(-c4ccc(NC(=O)NCCN5CC(F)C5)cc4)cc3c21

>  <IC50>
< 1 nM

$$$$

query: Kindly state the measured IC50 obtained for Cc1nc2cnc3ccc(-c4ccc(OCCCN(C)C)nc4)cc3c2n1C1CCOCC1 with human ATM (Homo sapiens (Human), UniProt Q13315).
Sequence (Q13315 whole entry): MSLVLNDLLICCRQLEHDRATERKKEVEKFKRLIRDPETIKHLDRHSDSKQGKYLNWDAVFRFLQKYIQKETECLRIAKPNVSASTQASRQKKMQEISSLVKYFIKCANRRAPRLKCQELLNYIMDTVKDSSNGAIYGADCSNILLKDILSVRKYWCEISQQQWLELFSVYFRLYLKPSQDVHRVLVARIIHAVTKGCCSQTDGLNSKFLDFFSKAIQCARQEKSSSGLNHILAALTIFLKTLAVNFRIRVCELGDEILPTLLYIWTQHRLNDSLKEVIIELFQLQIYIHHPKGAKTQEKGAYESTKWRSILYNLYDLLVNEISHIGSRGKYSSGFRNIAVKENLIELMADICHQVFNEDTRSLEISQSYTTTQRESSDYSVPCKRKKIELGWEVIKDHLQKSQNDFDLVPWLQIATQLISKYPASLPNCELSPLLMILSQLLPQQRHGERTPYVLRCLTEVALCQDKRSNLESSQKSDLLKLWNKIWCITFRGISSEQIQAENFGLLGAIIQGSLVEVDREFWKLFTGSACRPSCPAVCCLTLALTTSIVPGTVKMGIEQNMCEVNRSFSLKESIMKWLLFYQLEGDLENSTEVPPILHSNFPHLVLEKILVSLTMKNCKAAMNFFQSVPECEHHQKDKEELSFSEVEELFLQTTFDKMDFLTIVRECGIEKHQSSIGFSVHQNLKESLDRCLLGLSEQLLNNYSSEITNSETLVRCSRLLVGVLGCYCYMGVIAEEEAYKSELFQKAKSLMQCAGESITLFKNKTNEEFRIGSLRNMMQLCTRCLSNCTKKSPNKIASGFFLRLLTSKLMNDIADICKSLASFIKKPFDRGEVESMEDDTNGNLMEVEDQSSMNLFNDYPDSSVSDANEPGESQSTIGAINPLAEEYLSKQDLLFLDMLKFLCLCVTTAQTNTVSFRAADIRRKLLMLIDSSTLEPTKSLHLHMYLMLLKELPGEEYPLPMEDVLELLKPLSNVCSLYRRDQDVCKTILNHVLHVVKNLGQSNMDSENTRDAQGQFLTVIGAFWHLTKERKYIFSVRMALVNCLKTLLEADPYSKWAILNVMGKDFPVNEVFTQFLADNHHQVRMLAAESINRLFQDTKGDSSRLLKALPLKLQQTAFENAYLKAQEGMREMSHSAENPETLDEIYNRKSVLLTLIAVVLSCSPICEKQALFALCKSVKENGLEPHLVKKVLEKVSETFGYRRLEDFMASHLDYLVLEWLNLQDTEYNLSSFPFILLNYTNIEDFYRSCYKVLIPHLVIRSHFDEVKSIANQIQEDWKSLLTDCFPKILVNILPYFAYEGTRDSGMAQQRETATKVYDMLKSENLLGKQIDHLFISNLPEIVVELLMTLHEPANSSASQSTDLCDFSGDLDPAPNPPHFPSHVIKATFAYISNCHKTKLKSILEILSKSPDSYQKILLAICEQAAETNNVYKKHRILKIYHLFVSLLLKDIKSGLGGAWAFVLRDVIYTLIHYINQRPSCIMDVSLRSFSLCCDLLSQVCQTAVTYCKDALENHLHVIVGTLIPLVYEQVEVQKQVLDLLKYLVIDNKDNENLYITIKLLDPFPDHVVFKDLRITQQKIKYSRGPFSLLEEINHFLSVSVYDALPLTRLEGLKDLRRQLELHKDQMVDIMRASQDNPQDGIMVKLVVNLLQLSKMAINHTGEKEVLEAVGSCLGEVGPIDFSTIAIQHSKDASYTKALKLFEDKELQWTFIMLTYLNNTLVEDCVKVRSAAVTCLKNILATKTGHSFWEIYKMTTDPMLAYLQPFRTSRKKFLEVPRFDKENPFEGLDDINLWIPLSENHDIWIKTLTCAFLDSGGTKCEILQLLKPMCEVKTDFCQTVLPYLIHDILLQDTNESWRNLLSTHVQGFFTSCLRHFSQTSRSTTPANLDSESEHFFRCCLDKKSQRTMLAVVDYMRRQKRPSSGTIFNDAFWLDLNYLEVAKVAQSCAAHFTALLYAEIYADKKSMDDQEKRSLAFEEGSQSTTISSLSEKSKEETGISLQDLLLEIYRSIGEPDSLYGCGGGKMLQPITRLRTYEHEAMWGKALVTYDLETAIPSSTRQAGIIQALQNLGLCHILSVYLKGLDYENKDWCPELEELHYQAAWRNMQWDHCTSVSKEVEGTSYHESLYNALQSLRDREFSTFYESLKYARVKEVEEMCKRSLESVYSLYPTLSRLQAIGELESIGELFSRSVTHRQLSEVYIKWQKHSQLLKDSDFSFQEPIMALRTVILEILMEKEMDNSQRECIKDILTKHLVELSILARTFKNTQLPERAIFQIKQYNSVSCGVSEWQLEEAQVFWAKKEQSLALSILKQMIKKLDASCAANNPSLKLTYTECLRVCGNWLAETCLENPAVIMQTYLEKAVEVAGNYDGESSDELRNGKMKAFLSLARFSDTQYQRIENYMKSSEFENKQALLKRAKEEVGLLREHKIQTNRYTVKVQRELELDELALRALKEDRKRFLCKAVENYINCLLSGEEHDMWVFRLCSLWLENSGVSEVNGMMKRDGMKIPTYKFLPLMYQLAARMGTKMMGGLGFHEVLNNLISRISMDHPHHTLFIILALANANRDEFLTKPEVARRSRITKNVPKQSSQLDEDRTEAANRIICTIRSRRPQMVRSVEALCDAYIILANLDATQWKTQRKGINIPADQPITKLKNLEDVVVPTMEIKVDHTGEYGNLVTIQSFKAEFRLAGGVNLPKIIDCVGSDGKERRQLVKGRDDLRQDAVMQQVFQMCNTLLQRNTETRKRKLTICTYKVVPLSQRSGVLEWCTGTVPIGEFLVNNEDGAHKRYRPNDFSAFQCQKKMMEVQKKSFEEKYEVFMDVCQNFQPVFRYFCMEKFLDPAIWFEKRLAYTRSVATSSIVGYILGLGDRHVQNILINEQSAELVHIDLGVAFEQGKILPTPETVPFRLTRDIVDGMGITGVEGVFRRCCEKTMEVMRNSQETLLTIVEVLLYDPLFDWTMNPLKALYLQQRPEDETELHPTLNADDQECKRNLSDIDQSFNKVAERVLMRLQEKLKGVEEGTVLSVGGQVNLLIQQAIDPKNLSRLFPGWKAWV
result: 2.9 nM

query: Form field - read-out: IC50; system: human ATM (Homo sapiens (Human), UniProt Q13315); submitted item: COCCn1c(=O)n(C)c2cnc3ccc(-c4ccc(NC(=O)NCCN(C)C)c(F)c4)cc3c21
result: < 1 nM

query: Return IC50 measured with human ATM (Homo sapiens (Human), UniProt Q13315) given this compound: COCCn1c(=O)n(C)c2cnc3ccc(-c4ccc(OCCCN(C)C)nc4)cc3c21
result: < 1 nM

query: Provide value of IC50 for this record tested with human ATM (Homo sapiens (Human), UniProt Q13315): COCCn1c(=O)n(C)c2cnc3ccc(-c4ccc(NC(=O)N5CCC(N(C)C)C5)cc4)cc3c21 (centres unmarked)
result: 7 nM

---

pIC50: recorded values
- System: Panc-1 human pancreatic ductal carcinoma cells
- protocol: Panc1 cell assay (XTT cell viability with Etoposide)
- Type: cell-based
- experimental setup: 4 h pre-treatment, then 300 nM Etoposide, 46 h
Remember the convention: pIC50 equals -log10 of concentration in molar.

Some solved entries appear below for comparison.
>  <compound>
COCCn1c(=O)n(C)c2cnc3ccc(-c4ccc(NC(=O)NC5CCCN(C)C5)cc4)cc3c21 (stereo not shown)

>  <measurement target>
Panc-1 human pancreatic ductal carcinoma cells

>  <property label>
pIC50

>  <recorded result>
8.40

$$$$
>  <compound>
COCCn1c(=O)n(C)c2cnc3ccc(-c4ccc(NC(=O)NCCN(C)C)c(F)c4)cc3c21

>  <measurement target>
Panc-1 human pancreatic ductal carcinoma cells

>  <property label>
pIC50

>  <recorded result>
9.00

$$$$

query: Given the compound COCCn1c(=O)n(C)c2cnc3ccc(-c4ccc(NC(=O)NC5CCN(C)C5)cc4)cc3c21 (stereo not shown) , what is its reported pIC50?
result: 8.05

query: pIC50 lookup needed for COCCn1c(=O)n(C)c2cnc3ccc(-c4ccc(NC(=O)NCCN(C)C)cc4F)cc3c21 , thanks.
result: 9.00

---

- measurement target: human ATM (Homo sapiens (Human), UniProt Q13315)
property label: pIC50
Convention used: pIC50 is expressed as -log10 of the molar concentration.

Example entries and their recorded answers appear below.
>  <compound>
COCCn1c(=O)n(C)c2cnc3ccc(-c4ccc(NC(=O)NC5CCN(C)CC5)cc4)cc3c21 [Ex. 18]

>  <property label>
pIC50

>  <recorded result>
8.40

$$$$
>  <compound>
COCCn1cnc2cnc3ccc(-c4ccc(OCCCN(C)C)nc4)cc3c21 [Ex. 5]

>  <property label>
pIC50

>  <recorded result>
8.48

$$$$

Turning to the following compound.
query: What is its pIC50 for human ATM (Homo sapiens (Human), UniProt Q13315)? Entry: CN(C)CCCOc1ccc(-c2ccc3ncc4ncn(C5CCOCC5)c4c3c2)cn1 [Ex. 1]
result: 8.64
